- Measured target: Rho-associated protein kinase 1 (Homo sapiens)
- Sequence (Q13464 whole entry, the tested form may be a part): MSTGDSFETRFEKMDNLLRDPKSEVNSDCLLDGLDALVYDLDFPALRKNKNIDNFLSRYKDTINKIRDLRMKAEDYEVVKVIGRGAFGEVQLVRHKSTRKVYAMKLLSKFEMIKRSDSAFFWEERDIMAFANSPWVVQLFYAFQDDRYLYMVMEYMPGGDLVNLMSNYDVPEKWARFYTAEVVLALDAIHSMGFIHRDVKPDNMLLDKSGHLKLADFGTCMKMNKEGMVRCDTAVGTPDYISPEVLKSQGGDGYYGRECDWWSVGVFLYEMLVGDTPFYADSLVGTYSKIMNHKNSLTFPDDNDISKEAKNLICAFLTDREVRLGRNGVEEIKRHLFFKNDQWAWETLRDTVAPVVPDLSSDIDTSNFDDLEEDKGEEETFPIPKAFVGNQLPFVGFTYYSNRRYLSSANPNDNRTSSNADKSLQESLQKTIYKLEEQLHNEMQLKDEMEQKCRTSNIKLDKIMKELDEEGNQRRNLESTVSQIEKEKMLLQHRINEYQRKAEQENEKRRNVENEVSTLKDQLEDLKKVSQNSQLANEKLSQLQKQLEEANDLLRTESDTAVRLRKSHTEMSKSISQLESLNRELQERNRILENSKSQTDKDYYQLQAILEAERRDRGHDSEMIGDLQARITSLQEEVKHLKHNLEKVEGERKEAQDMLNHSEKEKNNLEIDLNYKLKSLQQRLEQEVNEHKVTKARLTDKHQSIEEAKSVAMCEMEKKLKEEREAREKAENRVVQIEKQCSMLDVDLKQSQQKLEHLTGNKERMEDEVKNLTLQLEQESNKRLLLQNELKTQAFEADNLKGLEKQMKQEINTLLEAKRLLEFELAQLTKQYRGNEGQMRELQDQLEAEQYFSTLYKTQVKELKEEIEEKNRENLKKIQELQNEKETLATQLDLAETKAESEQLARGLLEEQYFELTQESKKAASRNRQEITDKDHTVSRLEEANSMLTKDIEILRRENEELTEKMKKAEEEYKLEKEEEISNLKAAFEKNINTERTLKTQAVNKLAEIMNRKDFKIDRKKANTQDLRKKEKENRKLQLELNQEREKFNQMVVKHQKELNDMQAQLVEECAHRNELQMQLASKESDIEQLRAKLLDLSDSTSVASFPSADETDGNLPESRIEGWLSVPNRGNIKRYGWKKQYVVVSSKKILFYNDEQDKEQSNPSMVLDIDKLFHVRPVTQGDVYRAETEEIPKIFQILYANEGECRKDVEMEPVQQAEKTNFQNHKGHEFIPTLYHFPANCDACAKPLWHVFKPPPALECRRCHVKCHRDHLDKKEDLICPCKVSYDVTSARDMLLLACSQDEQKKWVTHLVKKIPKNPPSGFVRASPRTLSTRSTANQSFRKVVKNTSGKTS
- Test details: Inhibition of recombinant human ROCK1 (17 to 535 residues) using KEAKEKRQEQIAKRRRLSSLRASTSKSGGSQK as substrate incubated for 40 mins in presence of [gamma-33P]ATP by radiometric scintillation assay
Measurement label: pIC50
In simple prose, pIC50 is minus the logarithm base ten of a concentration in moles per litre.

Request: Which pIC50 reading was recorded for the molecule COc1cccc(Cn2cnc3sc(-c4ccnc(C)c4)cc3c2=O)c1 ?
Response: 5.60

Request: Record request: pIC50 value, item COc1ccc(Cn2cnc3sc(-c4ccnc5[nH]ccc45)cc3c2=O)cc1
Response: 7.89

Request: Record request: pIC50 value, item COc1cccc(Cn2cnc3sc(-c4ccncc4)cc3c2=O)c1
Response: 7.35

Request: May I ask what pIC50 has been recorded for COc1cccc(Cn2cnc3sc(-c4ccnc(F)c4)cc3c2=O)c1 ?
Response: 5.98

Request: pIC50 for COc1cccc(CN2CCc3cc(-c4ccc5[nH]ncc5c4)ccc3C2=O)c1 ?
Response: 5.69

Request: Item under review: O=c1c2cc(-c3ccnc4[nH]ccc34)sc2ncn1Cc1cccc(C(F)(F)F)c1 . Reported pIC50?
Response: 6.96

Request: Please report the recorded pIC50 for COc1cc(Cn2cnc3sc(-c4ccnc5[nH]ccc45)cc3c2=O)cc(OC)c1 .
Response: 7.13

Request: Requested read-out: pIC50. Entry: COc1ccc(Cn2cnc3sc(-c4ccnc5[nH]ccc45)cc3c2=O)cc1OC
Response: 7.60

Request: // query pIC50 value for entry COc1ccc(Cn2cnc3sc(-c4ccnc(N)c4)cc3c2=O)cc1
Response: 5.84

Request: // query pIC50 value for entry COc1cccc(Cn2cnc3cc(-c4ccc5[nH]ncc5c4)ccc3c2=O)c1
Response: 5.51

Request: Which pIC50 value belongs to Nc1cc(-c2cc3c(=O)n(Cc4cccc(F)c4)cnc3s2)ccn1 ?
Response: 7.47

Request: Look up pIC50 for this molecule: COc1cccc(Cn2cnc3sc(-c4ccc5[nH]ncc5c4)cc3c2=O)c1
Response: 7.70

Request: Which measured pIC50 value corresponds to COc1cccc(Cn2cnc3sc(-c4ccnc(N)c4)cc3c2=O)c1 ?
Response: 7.74

Request: Find the recorded pIC50 belonging to O=c1c2cc(-c3ccnc4[nH]ccc34)sc2ncn1Cc1cccc(F)c1 and report it.
Response: 7.89

---

- Measured target: UniProt O75116
- Sequence (O75116 whole entry, the tested form may be a part): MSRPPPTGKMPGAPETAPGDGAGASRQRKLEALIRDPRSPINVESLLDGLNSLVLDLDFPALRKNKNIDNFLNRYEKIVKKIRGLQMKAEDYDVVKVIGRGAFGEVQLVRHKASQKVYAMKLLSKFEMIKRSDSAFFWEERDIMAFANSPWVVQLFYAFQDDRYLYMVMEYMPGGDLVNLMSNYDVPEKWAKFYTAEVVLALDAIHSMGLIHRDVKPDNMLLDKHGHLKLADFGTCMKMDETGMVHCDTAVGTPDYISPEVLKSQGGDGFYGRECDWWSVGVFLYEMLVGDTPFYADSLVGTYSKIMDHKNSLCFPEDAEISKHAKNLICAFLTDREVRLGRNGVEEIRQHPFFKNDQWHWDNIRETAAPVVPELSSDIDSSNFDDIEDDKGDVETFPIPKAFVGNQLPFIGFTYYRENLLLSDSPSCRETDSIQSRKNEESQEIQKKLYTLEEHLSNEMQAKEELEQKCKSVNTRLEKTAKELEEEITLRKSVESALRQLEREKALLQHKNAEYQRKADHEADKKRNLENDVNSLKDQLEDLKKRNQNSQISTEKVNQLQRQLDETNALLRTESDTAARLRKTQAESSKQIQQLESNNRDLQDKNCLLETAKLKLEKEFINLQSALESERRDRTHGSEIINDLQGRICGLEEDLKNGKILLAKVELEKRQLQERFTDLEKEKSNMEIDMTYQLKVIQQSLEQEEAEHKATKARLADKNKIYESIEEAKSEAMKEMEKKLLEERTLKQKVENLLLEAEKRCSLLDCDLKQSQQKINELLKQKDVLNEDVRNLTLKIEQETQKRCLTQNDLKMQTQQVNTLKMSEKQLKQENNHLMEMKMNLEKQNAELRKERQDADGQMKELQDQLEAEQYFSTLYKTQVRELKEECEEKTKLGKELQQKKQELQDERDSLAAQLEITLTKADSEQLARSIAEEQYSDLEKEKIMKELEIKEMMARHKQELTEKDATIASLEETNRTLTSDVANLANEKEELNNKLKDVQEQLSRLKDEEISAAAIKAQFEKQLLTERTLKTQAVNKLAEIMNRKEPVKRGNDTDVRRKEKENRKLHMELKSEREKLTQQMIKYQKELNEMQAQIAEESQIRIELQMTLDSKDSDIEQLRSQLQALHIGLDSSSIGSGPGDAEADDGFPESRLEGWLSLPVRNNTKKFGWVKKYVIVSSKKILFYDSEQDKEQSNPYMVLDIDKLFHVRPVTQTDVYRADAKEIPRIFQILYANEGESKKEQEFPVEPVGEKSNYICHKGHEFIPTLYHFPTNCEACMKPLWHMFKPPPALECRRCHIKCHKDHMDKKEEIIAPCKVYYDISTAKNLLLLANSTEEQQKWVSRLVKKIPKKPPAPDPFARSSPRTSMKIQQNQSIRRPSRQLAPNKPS
- Test details: Inhibition of recombinant human ROCK2 (11 to 552 residues) using KEAKEKRQEQIAKRRRLSSLRASTSKSGGSQK as substrate incubated for 40 mins in presence of [gamma-33P]ATP by radiometric scintillation assay
Measurement label: pIC50
Worth noting: pIC50 values are minus log10 of concentrations stated in mol/L.

Request: // query pIC50 value for entry O=c1c2cc(-c3ccnc4[nH]ccc34)sc2ncn1Cc1cccc(C(F)(F)F)c1
Response: 8.15

Request: What value of pIC50 has been recorded for this entry: COc1cccc(Cn2cnc3sc(-c4cccc5[nH]ccc45)cc3c2=O)c1
Response: 6.23

Request: pIC50 lookup needed for Nc1cc(-c2cc3c(=O)n(Cc4cccc(C(F)(F)F)c4)cnc3s2)ccn1 , thanks.
Response: 7.60

Request: Any idea what its pIC50 is? The compound is COc1cccc(Cn2cnc3sc(-c4cccnc4)cc3c2=O)c1
Response: 5.46

Request: For the compound COc1ccc(Cn2cnc3sc(-c4ccnc5[nH]ccc45)cc3c2=O)cc1 , what pIC50 is on record?
Response: 8.70
